- experiment-description: solvent given as SMILES
- run-conditions: in Cc1ccccc1
Entries and their emission maximum
Quick reminder: number only, in nm, skip the unit.

- molecule: "CCCCCCCCCCCCC(CCCCCCCCCC)Cn1c2cc(/C=C/c3nc4ccccc4s3)c3cccc4c5cccc6c(/C=C/c7nc8ccccc8s7)cc1c(c65)c2c34 (stereo not given)"
  reading-unit: "nm"
  result-value: 582
- molecule: "CN(C)c1ccc(C2=Cc3cc(Cl)nc[n+]3[B-](F)(F)O2)cc1"
  reading-unit: "nm"
  result-value: 494
- molecule: "CCC1=C(C)C2=C(c3c4ccccc4c(-c4ccccc4)c4ccccc34)c3c(C)c(CC)c(C)n3[B-](F)(F)[N+]2=C1C"
  reading-unit: "nm"
  result-value: 544

# lookup: emission maximum of `F[B-]1(F)n2c(Nc3cccc4cccnc34)ccc2C(c2ccccc2)=C2C=CC(Cl)=[N+]21`
586

What would you report for `COc1cc2c(cc1/C=C/C(=C(C#N)C#N)c1ccccc1)c1ccccc1n2C` ?
566

====

- experiment-description: solvent given as SMILES
- run-conditions: in CS(C)=O
quantity-measured: emission maximum (nm)
Only the number, expressed in nm, is required.

- molecular-string: "O=CN1N=C(c2ccc(Br)cc2)C[C@@H]1c1ccccc1"
  result-value: 356

emission maximum for `CN(C)CCN(Cc1c2ccccc2cc2ccccc12)c1ccc([N+](=O)[O-])cc1[N+](=O)[O-]` ?
398

Okay, and `C(=C\c1ccncn1)/c1ccc(N(c2ccccc2)c2ccccc2)cc1` ?
550

Next compound up: `COc1cc2c(cc1/C=C/C(=C(C#N)C#N)c1ccccc1)c1ccccc1n2C`
581

Input `Cn1c2ccc(S(=O)(=O)O)cc2c(=O)c2cc(S(=O)(=O)O)ccc21`
424

====

- experiment-description: solvent given as SMILES
- run-conditions: in CO
quantity-measured: emission maximum (nm)
Give your result in nm as a bare value.

- compound: "CCC1=C(C)C2=C(C)c3c(C)c(-c4csc(N5CCOCC5)n4)c(C)n3[B-](F)(F)[N+]2=C1C"
  emission maximum [nm]: 540

Quick one: emission maximum of `CC1(C)C(/C=C/C2=C(Oc3ccc(CCN=C=S)cc3)C(=C/C=C3/N(CCCS(=O)(=O)[O-])c4ccccc4C3(C)C)/CCC2)=[N+](CCCS(=O)(=O)[O-])c2ccccc21` ?
794

Continue with CC(=O)c1ccc(/C=C/C=C/C2=NC3C(=O)NC(N)=NC3N2[C@H]2C[C@H](O)[C@@H](CO)O2)cc1 (stereo not given in full)
554

Also need `O=C1/C(=C2\Sc3ccc(S(=O)(=O)O)cc3C2=O)Sc2ccc(S(=O)(=O)O)cc21` , thanks.
629

Repeat with `COc1ccc2cc(-c3ccc(S(C)(=O)=O)cc3)oc(=O)c2c1`
410

Follow-up entry: `COc1cccc(-c2nc(-c3ccccc3)c(-c3ccccc3)[nH]2)c1`
379

What would you report for `CN(C)c1ccc(/C=C/c2cc[n+](CCC[n+]3ccc(/C=C/c4ccc(N(C)C)cc4)cc3)cc2)cc1` ?
604

Repeat with `Cc1ccc(CN2/C(=C/C=C3\CCCC(/C=C/C4=[N+](Cc5ccc(C)cc5)c5ccccc5C4(C)C)=C3Cl)C(C)(C)c3ccccc32)cc1`
813

Consider next the compound `Cc1ccc(-n2c3ccccc3c3cc(C(=C(C#N)C#N)c4ccccc4)ccc32)cc1` in the same way.
583

What about this compound? `O=C1Nc2ccccc2/C1=C/C(=O)c1ccc(O)cc1`
408

Input `CCC1=C(C)C2=Cc3cccn3[B-](F)(F)[N+]2=C1C`
516.5

Let us now turn to `COc1ccc(/C=C2\OC(=O)c3ccccc32)cc1`
459.35

Now the compound `C/C(=C\c1ccccc1)c1nc2ccccc2o1`
380

Continue with `CCc1c(C)c2n(c1C)[B-](F)(F)[N+]1=C(NCc3ccc(OC)cc3)C(SC#N)=CC1=C2C`
583

====

- experiment-description: solvent given as SMILES
- run-conditions: in ClC(Cl)Cl
quantity-measured: emission maximum (nm)
Express your answer in nm, writing the number without its unit.

- compound: "CC1=CC(C)=[N+]2C1=C(C1=C3C(C)=CC(C)=[N+]3[B-](F)(F)n3c(C)cc(C)c31)c1c(C)cc(C)n1[B-]2(F)F"
  quantity-measured: "emission maximum"
  result-value: 588
- compound: "CCN(CC)c1ccc2cc(-c3cn4ccccc4n3)c(=O)oc2c1"
  quantity-measured: "emission maximum"
  result-value: 471
- compound: "Cc1ccc(C2CC(=O)Oc3c2c2nc4ccc(C)cc4nc2c2ccccc32)cc1 (configuration not stated)"
  quantity-measured: "emission maximum"
  result-value: 442
- compound: "COc1ccc(C2=CC(c3ccc4cc(N(C)C)ccc4c3)=[O+][B-](F)(F)O2)cc1"
  quantity-measured: "emission maximum"
  result-value: 596
- compound: "Cc1cccc(C)c1-c1cc2c(C)c3c4cc5nc6cc7c(cc6nc5cc4c3c(C)c2cc1-c1c(C)cccc1C)c1c(C)c2cc(-c3c(C)cccc3C)c(-c3c(C)cccc3C)cc2c(C)c71"
  quantity-measured: "emission maximum"
  result-value: 523

Entry under review: `CC1=CC(C)=[N+]2C1=C(c1ccc(I)cc1)c1c(C)cc(C)n1[B-]2(Oc1ccc(Cl)cc1)Oc1ccc(Cl)cc1` . Reported emission maximum?
519.7

Repeat for the following compound: `F[B-]1(F)n2cccc2C(c2ccccc2)=C2C=CC(c3cccc(OC4=[N+]5C(=C(c6ccccc6)c6cc(Br)c(-c7ccc[nH]7)n6[B-]5(F)F)C=C4Br)c3)=[N+]21`
644

====

Parameter: emission maximum. Scope: all listed entries.
- experiment-description: solvent given as SMILES
- run-conditions: in Cc1ccccc1

The examples below pair each entry with its known result.
- compound: "O=P(c1ccccc1)(c1ccccc1)n1c2ccccc2c2cc(-n3c4ccccc4c4cc(-n5c6ccccc6c6cc(-n7c8ccccc8c8ccccc87)ccc65)ccc43)ccc21"
  emission maximum: "376 nm"
- compound: "COc1nc(Cl)nc(Nc2ccc3c4c(cccc24)C(=O)c2ccccc2-3)n1"
  emission maximum: "518.13 nm"
- compound: "CCCCCCCCCCCCC(CCCCCCCCCC)Cn1c2cc(C=C(C#N)C#N)c3cccc4c5cccc6c(C=C(C#N)C#N)cc1c(c65)c2c34 (configuration not stated)"
  emission maximum: "623 nm"
- compound: "Cc1ccc(-n2c(-c3ccccc3[N-]S(=O)(=O)c3ccc(C)cc3)[nH+]c3c4ccccc4c4ccccc4c32)cc1"
  emission maximum: "506 nm"
- compound: "CN(C)c1ccc(/C=C/C=C/c2nc3ccccc3o2)cc1"
  emission maximum: "496 nm"
- compound: "CCOC(=O)/C(C#N)=C/c1cc2c3ccccc3n(C)c2cc1OC"
  emission maximum: "446 nm"

I have this compound here, `CCC1(CC)c2cc(B(c3c(C)cc(C)cc3C)c3c(C)cc(C)cc3C)ccc2-c2c1c1c(c3c2C(CC)(CC)c2cc(N(c4ccccc4)c4ccccc4)ccc2-3)C(CC)(CC)c2cc(B(c3c(C)cc(C)cc3C)c3c(C)cc(C)cc3C)ccc2-1` , and I need its recorded emission maximum.
444 nm

====

Recorded emission maximum by entry
- experiment-description: solvent given as SMILES
- run-conditions: in OCCOCCO
Answer format: numeric, nm implied, no suffix.

# count of solved cases: 3
- compound: "CC1CC=C(c2ccc(-c3ccc(C=O)s3)s2)CC1 (centres undefined)"
  reading-unit: "nm"
  emission maximum: 508
- compound: "CC1CCC(O)(c2ccc(-c3cccs3)s2)CC1 (centres undefined)"
  reading-unit: "nm"
  emission maximum: 414
- compound: "O=Cc1ccc(-c2ccc(C3=CCCCC3)s2)s1"
  reading-unit: "nm"
  emission maximum: 508

Attention now turns to another entry.
Tell me the measured emission maximum of `OC1(c2ccc(-c3cccs3)s2)CCC1` , please.
465

====

- experiment-description: solvent given as SMILES
- run-conditions: in CCCCOCCCC
# thresholds on emission maximum define classes: label 0 = under 400 nm, label 1 = from 400 nm up to 500 nm, label 2 = 500 nm and over

These recorded examples may help you get a feel for the data.
- molecular-string: "CC(C)(C)c1ccc(-c2nc3c4ccc(-c5ccccc5)cc4c4cc(-c5ccccc5)ccc4c3n2-c2ccc(C(C)(C)C)cc2)cc1"
  label-class: "label 0"
- molecular-string: "COc1nc(Cl)nc(Nc2ccc3c4cccc5cccc(c6cccc2c63)c54)n1"
  label-class: "label 1"
- molecular-string: "COc1ccc(/C=C/c2ccccc2)cc1OC"
  label-class: "label 0"
- molecular-string: "CC(C)(C)c1ccc(-c2nc3c4ccc(-c5c6ccccc6cc6ccccc56)cc4c4cc(-c5c6ccccc6cc6ccccc56)ccc4c3n2-c2ccc(C(C)(C)C)cc2)cc1"
  label-class: "label 1"
- molecular-string: "Nc1ccc2c3c(cccc13)C(=O)c1ccccc1-2"
  label-class: "label 2"
- molecular-string: "Clc1nc(Cl)nc(Nc2ccc3c4cccc5cccc(c6cccc2c63)c54)n1"
  label-class: "label 1"
- molecular-string: "O=C1NC(=O)c2c1c1c3ccccc3[nH]c1c1[nH]c3ccccc3c21"
  label-class: "label 1"
- molecular-string: "Clc1nc(Nc2ccccc2)nc(Nc2ccc3c4cccc5cccc(c6cccc2c63)c54)n1"
  label-class: "label 1"

# classify by emission maximum band: `CC(C)(C)c1ccc(-c2nc3c4ccc(-c5cccc6ccccc56)cc4c4cc(-c5cccc6ccccc56)ccc4c3n2-c2ccc(C(C)(C)C)cc2)cc1`
label 0

// query: `COc1ccc(C2=C3C(C)=CC(C)=[N+]3[B-](F)(F)n3c(/C=C/c4ccc(N(C)C)cc4)cc(C)c32)cc1`
label 2

For `CC(C)(C)c1ccc(-c2nc3c4ccc(-c5cc6ccccc6c6ccccc56)cc4c4cc(-c5cc6ccccc6c6ccccc56)ccc4c3n2-c2ccc(C(C)(C)C)cc2)cc1` then?
label 0

Repeat with `Nc1ccc2ccc3cccc4ccc1c2c34`
label 1
